Entries and their IC50 values follow.
# Test system: P388
# Measurement notes: In vitro inhibitory effect on growth of P388 leukemia cells
# Type: functional
# Measurement context: Mus musculus, read-out: ID50 (the source's name)
Quantity: IC50 (µM)

{"columns": ["Molecule", "Censoring qualifier", "Assay value"],
 "data": [
  ["NC(=O)c1[nH]nc([C@@H]2O[C@H](COP(=O)([O-])[O-])[C@@H](O)[C@H]2O)c1OCc1ccccc1.[Na+].[Na+]", "=", 94],
  ["NC(=O)C1NN=C([C@@H]2O[C@H](CO)[C@@H](O)[C@H]2O)C1=O (some centres undefined)", "=", 0.0033],
  ["CN1N=C([C@@H]2O[C@H](CO)[C@@H](O)[C@H]2O)C(=O)C1C(N)=O (some centres undefined)", "=", 17],
  ["N=C(N)C1NN=C([C@@H]2O[C@H](CO)[C@@H](O)[C@H]2O)C1=O (some centres undefined)", ">", 100]
]}

Cited source for all entries: ChEMBL document CHEMBL1123400
